experiment: Quantitative High-Throughput drug screen in 47 multiple myeloma cell lines against the NCATS MIPE library collection: Karpas417_ECACC cell viability assay (AID 1918961); details: Karpas417 myeloma viability, CellTiter-Glo ATP luminescence, 48 h
Records with an inconclusive call do not appear. Calls of active or inactive are those of the source. Calls follow the shape of the dose curve; as a rule, active = well fitted cell-killing curve with a large enough effect; inconclusive = small, poorly fitted or top-dose-only effect, or effect the other way; inactive = no such curve, though single readings can be large or run the other way.
Outcomes: true (1) = active, false (0) = inactive

| molecule | class |
| --- | --- |
| CCc1ccc(OCc2ccccc2C(=O)Nc2ccc3nc(C)cc(N)c3c2)cc1 | true (1) |
| CC1(C)S[C@H]2[C@H](NC(=O)[C@@H](N)c3ccc(O)cc3)C(=O)N2[C@@H]1C(=O)O | true (1) |
| OC[C@H]1O[C@@H](n2cnc3c2NC=NC[C@@H]3O)C[C@H]1O | false (0) |
| CC(C)=CC[C@@H](O)C1=CC(=O)c2c(O)ccc(O)c2C1=O | true (1) |
| CC(C)C(=O)Oc1ccc(CO)cc1[C@H](CCN(C(C)C)C(C)C)c1ccccc1 | false (0) |
| CC1(C)O[C@H]2C[C@@H]3[C@H]4CCC5=CC(=O)C=C[C@]5(C)[C@@]4(F)[C@@H](O)C[C@]3(C)[C@]2(C(=O)CO)O1 | true (1) |
| Cc1ccc(C(C)(O)c2nc3ccccc3s2)c(C)c1 (stereo not given) | false (0) |
| Cc1ccc(Nc2cc(-c3cccc(N4C(=O)c5ccccc5C4=O)c3)ncn2)cc1NS(C)(=O)=O | true (1) |
| COCCOc1nc(-c2ccc(Cl)c(Cl)c2)n(-c2ccc(NC(=O)CCl)cc2)n1 | true (1) |
| CN(C)C1CCN(C(=O)c2ccc(NC(=O)Nc3nc(N4CCOCC4)nc(N4CCOCC4)n3)cc2)CC1 | true (1) |
